Tested on: NCI-H226 lung
Experiment: NCI-60 one-dose screen, 48 h (100 = growth as untreated, 0 = no growth, -100 = all killed)
Conditions: 10 µM unless noted
This is part of a sample that, as a whole, favours compounds with a hit. Of some 83,000 tested, about 20% had one in any assay.
Decision: growth compared against 70%; not below it gives T, below it gives F.

Compound: O=C(NCCCl)Nc1ncccc1OCc1ccccc1
Class label: T

// query Assess whether reported growth for COc1ccc(C(=O)c2cc3c(N)c(C(=O)Nc4ccc(C)cc4)sc3nc2C)cc1 sits at 70% or higher.
// result F

// query Assess whether reported growth for O=C(/C=C/c1ccccc1)Nc1ncc(Cc2ccccc2Cl)s1 sits at 70% or higher.
// result F
